# Method summary: NCI Yeast Anticancer Drug Screen. Data for the rad18 strain (AID 177)
# Condition description: S. cerevisiae rad18 mutant growth inhibition; at 100.0 µM; active compounds read high
This is part of a sample that, as a whole, favours compounds with a hit. Of some 79,000 tested, about 15% had one in any assay.
Form field: growth inhibition (one value per entry).

[
  {
    "Molecule": "O=C(O)c1ccccc1-c1ccccc1C(=O)Nc1ccc2c(c1)Cc1ccccc1-2",
    "growth inhibition [%]": 90
  },
  {
    "Molecule": "CCc1ncnc2cc(OCC3CO3)c(OC)cc12 (stereo unspecified)",
    "growth inhibition [%]": 93
  },
  {
    "Molecule": "CC(C)C1=CCC2C(=C1)CCC1C(C)(C(=O)O)CCCC21C (stereo unspecified) (tested in a mixture with another compound)",
    "growth inhibition [%]": 88
  },
  {
    "Molecule": "O=[N+]([O-])c1ccc([N+]2=NC(c3ccccc3)=NN(c3ccccc3)C2)cc1",
    "growth inhibition [%]": 70
  },
  {
    "Molecule": "Cc1c(Cl)ccc2c1S(=O)(=O)c1cccc(Cl)c1-2",
    "growth inhibition [%]": 7
  },
  {
    "Molecule": "O=C(CC(=O)n1nc(-c2ccccc2)c(N=Nc2ccccc2C(=O)O)c1-c1ccccc1)Nc1ccc(Cl)cc1",
    "growth inhibition [%]": 43
  },
  {
    "Molecule": "O=c1c2ccccc2ncn1COCc1ccccc1",
    "growth inhibition [%]": 26
  },
  {
    "Molecule": "O=C(/C=C\\c1ccc(Cl)cc1Cl)c1cccs1",
    "growth inhibition [%]": 84
  },
  {
    "Molecule": "CC(=O)OCCOCNC(=S)N/N=C(\\C)c1cnccn1",
    "growth inhibition [%]": 82
  },
  {
    "Molecule": "O=C(Nc1ccc(Cl)cc1)OCC#CCCl",
    "growth inhibition [%]": 52
  },
  {
    "Molecule": "COc1ccc2sc3cccc(NCCN(C)C)c3c(=O)c2c1",
    "growth inhibition [%]": 27
  },
  {
    "Molecule": "C[S+](C)C1(c2ccccc2)C(=O)c2ccccc2C1=O",
    "growth inhibition [%]": 54
  },
  {
    "Molecule": "CC(=O)Cc1ccc[cH-]1.[Fe+2].c1cc[cH-]c1",
    "growth inhibition [%]": 35
  },
  {
    "Molecule": "CSC(=S)Nc1cccc(C)n1",
    "growth inhibition [%]": 69
  },
  {
    "Molecule": "Nc1ccccc1CC(O)C(=O)O (stereo unspecified)",
    "growth inhibition [%]": 90
  },
  {
    "Molecule": "COC1C=COC2(C)Oc3c(C)c(O)c4c(c3C2=O)/C(=N/C2CCC(O)OC2C)C=C(NC(=O)/C(C)=C\\C(=O)C2CC2C(O)C(C)C(O)C(C)C(OC(C)=O)C1C)C4=O (stereo unspecified)",
    "growth inhibition [%]": 48
  }
]

----------
# Method summary: NCI Yeast Anticancer Drug Screen. Data for the rad18 strain (AID 177)
# Condition description: S. cerevisiae rad18 mutant growth inhibition; at 1.2 µM; active compounds read high
The panel holds about 79,000 compounds, 15% with a hit somewhere; the sample as a whole holds those more often.
# growth inhibition listing for each entry below

[
  {
    "Molecule": "N#C/C(=C\\c1cccc(OCc2ccccc2)c1)c1ccc([N+](=O)[O-])cc1",
    "growth inhibition (%)": -26
  },
  {
    "Molecule": "CCOC(=O)c1cnc2c(C(F)(F)F)cccc2c1N=[N+]=[N-]",
    "growth inhibition (%)": -5
  },
  {
    "Molecule": "COC(=O)C1=C(C)NC(C)=C(C(=O)OCCCN2CCC(c3ccccc3)(c3ccccc3)CC2)C1c1cccc([N+](=O)[O-])c1 (stereo unspecified)",
    "growth inhibition (%)": -7
  },
  {
    "Molecule": "CC(=O)ON1C(=O)c2cccc3cccc(c23)C1=O",
    "growth inhibition (%)": 15
  },
  {
    "Molecule": "O=C1C2C=CC1C1C(=O)OC(=O)C21 (stereo unspecified)",
    "growth inhibition (%)": -23
  },
  {
    "Molecule": "CCS(=O)(=O)c1ccc(/C=C/C=N/NC(=S)NCC(C)C)cc1",
    "growth inhibition (%)": 6
  },
  {
    "Molecule": "O=C1CSc2cc([N+](=O)[O-])ccc2N1",
    "growth inhibition (%)": 0
  },
  {
    "Molecule": "Clc1ccc(SC(/C=C/NNC2=NC(c3ccccc3)C(c3ccccc3)=NN2)c2ccccc2)cc1 (stereo unspecified)",
    "growth inhibition (%)": 2
  },
  {
    "Molecule": "COc1cc(C2SCC(=O)N2c2nnc(C(F)(F)F)s2)cc(OC)c1OC (stereo unspecified)",
    "growth inhibition (%)": -2
  },
  {
    "Molecule": "CSC(=S)N/N=C(\\C)c1cccc(C)n1",
    "growth inhibition (%)": -5
  },
  {
    "Molecule": "Clc1ccccc1C1OC1c1ccccc1Cl (stereo unspecified)",
    "growth inhibition (%)": -59
  },
  {
    "Molecule": "Cc1cc(O)cc(O)c1N=Nc1ccc([N+](=O)[O-])cc1",
    "growth inhibition (%)": 5
  },
  {
    "Molecule": "CC(CC(C)(C)[N+](C)(C)C)[N+](C)(C)C (stereo unspecified)",
    "growth inhibition (%)": 11
  },
  {
    "Molecule": "O=CNc1ccc2c(c1)C(=O)c1ccccc1-2",
    "growth inhibition (%)": 2
  },
  {
    "Molecule": "CCCCN(CCCC)CCSc1ccc(Cl)cc1",
    "growth inhibition (%)": -8
  },
  {
    "Molecule": "COc1cc(C2C3=C(COC3=O)Oc3cc4c(cc32)OCO4)ccc1O (stereo unspecified)",
    "growth inhibition (%)": 2
  }
]

----------
# Method summary: NCI Yeast Anticancer Drug Screen. Data for the sgs1 mgt1 strain (AID 161);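 further: 0% = growth of cultures given vehicle only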
# Condition description: S. cerevisiae sgs1 mgt1 strain, at 50.0 µM, active compounds read high
The panel holds about 79,000 compounds, 15% with a hit somewhere; the sample as a whole holds those more often.
growth inhibition: recorded values
Assay readout: growth inhibition (%)

[
  {
    "Compound": "CC(=O)ON1C(=O)c2cccc3cccc(c23)C1=O",
    "Measured value": 90.7
  },
  {
    "Compound": "O=C1c2ccccc2-c2nc3ccccc3nc21",
    "Measured value": -24.4
  },
  {
    "Compound": "COc1ccc2sc3cccc(NCCN(C)C)c3c(=O)c2c1",
    "Measured value": 54.6
  },
  {
    "Compound": "C/C(=N/NC(=S)N1CCCCCC1)c1cccc(/C(C)=N\\NC(=S)N2CCCCCC2)n1",
    "Measured value": 92.8
  },
  {
    "Compound": "CCN(CC)C(=S)N/N=C(/C)c1cccc(/C(C)=N\\NC(=S)N(CC)CC)n1",
    "Measured value": 66.7
  },
  {
    "Compound": "CCOC(=O)C(NC(=O)c1ccccc1)(N1CCN(c2cc3c(cc2F)c(=O)c(C(=O)O)cn3C2CC2)CC1)C(F)(F)F (stereo not drawn)",
    "Measured value": -4.1
  },
  {
    "Compound": "CC(=O)OCc1ccc(O)c(C=O)c1",
    "Measured value": 62.5
  },
  {
    "Compound": "O=C1C2C(C(=O)N1c1ccc(OCc3ccccc3)cc1)C1c3ccccc3C2C2CCCCN21 (stereo not drawn)",
    "Measured value": 90.7
  },
  {
    "Compound": "CCC#CCCCOC(=O)c1cc([N+](=O)[O-])cc([N+](=O)[O-])c1",
    "Measured value": 99.6
  },
  {
    "Compound": "FC(F)(F)c1cc(NC(=S)N2c3ccccc3-n3cccc3C2c2cccnc2)cc(C(F)(F)F)c1 (stereo not drawn)",
    "Measured value": 44.5
  },
  {
    "Compound": "OCC1OC(OCC(O)C(O)C(O)C(/C=N/Nc2ccccc2)=N/Nc2ccccc2)C(O)C(O)C1O (stereo not drawn)",
    "Measured value": 93.3
  },
  {
    "Compound": "COC1=CC(=O)C2C(C1=O)C(c1ccc(Cl)cc1)[C@@H]2C (stereo partly drawn)",
    "Measured value": 92
  },
  {
    "Compound": "COc1ccc(C2c3cc4c(cc3OC(C)(O)C2C)OCO4)c(OC)c1 (stereo not drawn)",
    "Measured value": 84.5
  },
  {
    "Compound": "CNC1C(OC2C(OC3C(O)C(O)C(N=C(N)N)C(O)C3N=C(N)N)OC(C)C2(O)CO)OC(CO)C(O)C1O (stereo not drawn)",
    "Measured value": 91.8
  },
  {
    "Compound": "O=c1c2ccccc2ncn1COCc1ccccc1",
    "Measured value": 89.5
  },
  {
    "Compound": "COc1ccc2ccc3ccccc3c2c1C=O",
    "Measured value": 55.8
  },
  {
    "Compound": "[N-]=N[N+]#I1OC(C(F)(F)F)(C(F)(F)F)c2ccccc21",
    "Measured value": 92.8
  },
  {
    "Compound": "Cc1cccc2c(C(O)CBr)cc(-c3ccc(Cl)cc3)nc12 (stereo not drawn)",
    "Measured value": 95.7
  },
  {
    "Compound": "COc1ccc2c(c1)C(=O)c1ccccc1C2",
    "Measured value": -5.05
  },
  {
    "Compound": "O=C(OCC=C1CCCC1)c1cc([N+](=O)[O-])cc([N+](=O)[O-])c1",
    "Measured value": 2.55
  },
  {
    "Compound": "Cc1nc(-c2ccccc2)c(-c2ccccc2)s1",
    "Measured value": 88.4
  },
  {
    "Compound": "CCN(CC)CC[n+]1ccc2c(C)c3[nH]c4ccc(O)cc4c3c(C)c2c1",
    "Measured value": 1.5
  },
  {
    "Compound": "N/C(=N\\OC(=O)NC(Cl)=C(Cl)Cl)c1cc(C(F)(F)F)cc(C(F)(F)F)c1",
    "Measured value": 89.4
  },
  {
    "Compound": "COc1ccc2nc3cccc([N+](=O)[O-])c3c(NCCN(CCO)CCO)c2c1",
    "Measured value": 69.5
  },
  {
    "Compound": "CC1=C(SCCO)C(=O)c2ccccc2C1=O",
    "Measured value": 81.5
  },
  {
    "Compound": "CC[C@@]1(O)C(=O)OCc2c1cc1n(c2=O)Cc2cc3c(CN(C)C)c(O)ccc3nc2-1",
    "Measured value": 4.5
  },
  {
    "Compound": "C#CCCCc1ccccc1",
    "Measured value": 63.6
  },
  {
    "Compound": "CCC[CH2][Ge]([CH2]CCC)([CH2]CCC)[O]C(=O)C(OC)c1ccccc1 (stereo not drawn)",
    "Measured value": 82.8
  }
]
